Molecular target: T1, wild-type human PTH/PTHrP receptor (hP1R-WT) (human, UniProt Q03431 27-593)
T1 construct: whole, on cells; HKRK-B28 cells express ~280,000 receptors per cell; also called PTH-1 receptor; PTH-1R
T1 sequence (looked up): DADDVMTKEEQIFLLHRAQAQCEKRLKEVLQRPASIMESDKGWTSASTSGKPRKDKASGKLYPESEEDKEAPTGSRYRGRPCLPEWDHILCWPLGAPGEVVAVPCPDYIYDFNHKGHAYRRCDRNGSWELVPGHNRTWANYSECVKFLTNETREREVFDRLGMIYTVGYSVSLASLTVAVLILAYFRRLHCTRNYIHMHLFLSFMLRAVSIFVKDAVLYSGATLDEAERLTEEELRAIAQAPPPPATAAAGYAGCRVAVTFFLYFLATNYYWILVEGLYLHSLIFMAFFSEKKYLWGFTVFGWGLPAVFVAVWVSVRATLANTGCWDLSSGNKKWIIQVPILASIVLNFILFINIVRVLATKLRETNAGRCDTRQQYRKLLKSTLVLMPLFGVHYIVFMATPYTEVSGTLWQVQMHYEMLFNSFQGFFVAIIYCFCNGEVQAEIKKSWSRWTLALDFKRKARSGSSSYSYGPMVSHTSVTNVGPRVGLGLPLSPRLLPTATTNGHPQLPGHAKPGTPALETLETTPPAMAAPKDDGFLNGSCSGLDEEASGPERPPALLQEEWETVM
Assay: competition binding, 125I-[M]PTH(1-21) tracer, HKRK-B28 cells, 4 h at 4 C
Square brackets hold non-standard residues; d marks the D form. Ends that are not written are not given here. hArg = N=C(N)NCCCC[C@H](N)C(=O)O; Aib = CC(C)(N)C(=O)O
MEASURE: pIC50
In simple prose, pIC50 is minus the logarithm base ten of a concentration in moles per litre.

Query block: # input binder: A[Aib]AEIQLMHQ[hArg]AKW-NH2 (N-terminus assumed; SMILES CC[C@H](C)[C@H](NC(=O)[C@H](CCC(=O)O)NC(=O)[C@H](C)NC(=O)C(C)(C)NC(=O)[C@H](C)N)C(=O)N[C@@H](CCC(N)=O)C(=O)N[C@@H](CC(C)C)C(=O)N[C@@H](CCSC)C(=O)N[C@@H](Cc1c[nH]cn1)C(=O)N[C@@H](CCC(N)=O)C(=O)N[C@@H](CCCCNC(=N)N)C(=O)N[C@@H](C)C(=O)N[C@@H](CCCCN)C(=O)N[C@@H](Cc1c[nH]c2ccccc12)C(N)=O, Aib scan of [M]PTH(1-14); also called 623 Aib-2) [[Aib^2,M]PTH(1-14)] ; wanted: its pIC50
Result block: 4.30
